- SUBJECT OF TEST: PEG-3 (UniProt Q6IN02)
- PROTOCOL NOTES: GAPDH versus PEG-3 reporter suppression – cell-based, luminescence, counter-screen for PEG-3 promoter inhibitor project, SAR follow-up (AID 651551)
- SETUP CONDITIONS: HeLa PEG-Prom / GAPDH luciferase reporter, 6 or 24 h, run 2, 6 h; at 99 µM (top of the series)
We use 20% as the dividing line for inhibition % (higher = more inhibition): on or above the line is rule met, below is rule not met.

Example entries and their recorded answers appear below.
# SMILES NOTATION, CLASS NAME
measured = [
    ("COCCCNC(=O)c1ccc(Cn2c(=O)c3ccccc3n(Cc3ccccc3C#N)c2=O)cc1", "rule met"),
    ("CCCn1nc(C(=O)Nc2nc(-c3ccccn3)cs2)c2ccccc2c1=O", "rule met"),
    ("Cc1nc(NC(=O)c2ccccc2)sc1-c1csc(Nc2cccc(Cl)c2C)n1", "rule met"),
    ("CCn1cc(C(=O)NCc2ccco2)c(=O)c2cc(S(=O)(=O)N3CCCC3)ccc21", "rule not met"),
    ("CCCn1nc(C(=O)Nc2nc(-c3ccncc3)cs2)c2ccccc2c1=O", "rule not met"),
]

-- ask Reported inhibition % (higher = more inhibition) reaches at least 20% for `COc1ccccc1Nc1nc(-c2sc(NC(=O)c3ccco3)nc2C)cs1` ?
-- reply rule not met

-- ask And then `Cc1cc(NC(=O)c2ccccc2)n(-c2nc3ccccc3[nH]2)n1` , what is it?
-- reply rule not met
